// provenance: patent EP1516629B1

Measured Var.EC50/HuIgG1 EC50 of individual entries
Target: T1, rhesus CD11a (rhesus) (UniProt H9Z8N3)
T1 sequence: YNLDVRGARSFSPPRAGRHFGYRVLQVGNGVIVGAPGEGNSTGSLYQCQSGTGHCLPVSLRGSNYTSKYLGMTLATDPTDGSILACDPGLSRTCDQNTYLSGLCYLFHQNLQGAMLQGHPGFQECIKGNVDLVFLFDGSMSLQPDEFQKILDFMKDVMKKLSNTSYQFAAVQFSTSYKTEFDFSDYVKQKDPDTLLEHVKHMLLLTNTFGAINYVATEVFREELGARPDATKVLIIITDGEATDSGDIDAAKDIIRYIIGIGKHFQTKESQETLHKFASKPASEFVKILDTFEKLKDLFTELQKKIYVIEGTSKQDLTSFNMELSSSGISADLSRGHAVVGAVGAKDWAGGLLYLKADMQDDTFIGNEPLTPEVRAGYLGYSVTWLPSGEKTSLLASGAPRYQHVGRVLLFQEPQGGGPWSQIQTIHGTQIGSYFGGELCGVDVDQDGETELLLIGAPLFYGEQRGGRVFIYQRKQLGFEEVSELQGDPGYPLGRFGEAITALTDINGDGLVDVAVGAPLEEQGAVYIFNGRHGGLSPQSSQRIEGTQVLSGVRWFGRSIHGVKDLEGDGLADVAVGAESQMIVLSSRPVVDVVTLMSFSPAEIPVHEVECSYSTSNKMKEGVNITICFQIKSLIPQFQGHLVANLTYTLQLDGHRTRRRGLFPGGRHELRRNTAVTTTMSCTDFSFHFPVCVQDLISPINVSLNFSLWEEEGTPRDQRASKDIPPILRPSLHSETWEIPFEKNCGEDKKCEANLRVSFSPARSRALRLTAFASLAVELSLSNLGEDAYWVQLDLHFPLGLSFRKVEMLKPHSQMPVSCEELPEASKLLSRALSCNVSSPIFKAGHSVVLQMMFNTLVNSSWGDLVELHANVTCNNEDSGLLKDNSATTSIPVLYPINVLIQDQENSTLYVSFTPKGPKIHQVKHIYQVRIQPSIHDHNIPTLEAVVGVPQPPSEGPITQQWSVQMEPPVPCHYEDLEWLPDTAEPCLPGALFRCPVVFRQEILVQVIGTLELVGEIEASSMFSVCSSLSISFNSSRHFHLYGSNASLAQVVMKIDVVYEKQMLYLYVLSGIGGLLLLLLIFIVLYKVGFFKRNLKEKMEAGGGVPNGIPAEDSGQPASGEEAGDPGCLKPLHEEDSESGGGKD
Test: binding to rhesus peripheral blood lymphocytes

A selection of reference data follows.
- L1 variant IgG1 (antibody, V domains shown) VH: EVQLVESGGGLVQPGGSLRLSCAASGYSFTGHWMNWVRQAPGKGLEWVGMIHPSDSETRYNQKFKDRFTISVDKSKNTLYLQMNSLRAEDTAVYYCARGIYFYGTTYFDYWGQGTLVTVSS VL: DIQMTQSPSSLSASVGDRVTITCRASAAIAAYLAWYQQKPGKAPKLLIYSGSTLQSGVPSRFSGSGSGTDFTLTISSLQPEDFATYYCQQHNEYPLTFGQGTKVEIKR: 1
- GlnH61Ala variant IgG1 (antibody, V domains shown) VH: EVQLVESGGGLVQPGGSLRLSCAASGYSFTGHWMNWVRQAPGKGLEWVGMIHPSDSETRYNAKFKDRFTISVDKSKNTLYLQMNSLRAEDTAVYYCARGIYFYGTTYFDYWGQGTLVTVSS VL: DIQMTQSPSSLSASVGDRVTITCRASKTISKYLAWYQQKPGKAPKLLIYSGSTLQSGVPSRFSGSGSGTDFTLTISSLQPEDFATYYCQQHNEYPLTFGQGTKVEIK: 5.3

We next turn to a different binder, shown below.
Exam item: Entry H2C7 variant IgG1 (antibody, V domains shown) VH: EVQLVESGGGLVQPGGSLRLSCAASGYSFTGHWMNWVRQAPGKGLEWVGMIAPAASATRYNQKFKDRFTISVDKSKNTLYLQMNSLRAEDTAVYYCARGIYFYGTTYFDYWGQGTLVTVSS VL: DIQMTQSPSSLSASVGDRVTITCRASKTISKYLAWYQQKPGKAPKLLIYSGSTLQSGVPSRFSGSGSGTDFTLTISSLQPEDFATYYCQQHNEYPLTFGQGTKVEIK : reported Var.EC50/HuIgG1 EC50 = ?
Marked response: 1.03
